# Target: VEGFR2 (Homo sapiens, UniProt P35968)
# Construct: host or cells: HEK293 (VEGFR2/NFAT Reporter recombinant cell line)
# Sequence (P35968 20-1356): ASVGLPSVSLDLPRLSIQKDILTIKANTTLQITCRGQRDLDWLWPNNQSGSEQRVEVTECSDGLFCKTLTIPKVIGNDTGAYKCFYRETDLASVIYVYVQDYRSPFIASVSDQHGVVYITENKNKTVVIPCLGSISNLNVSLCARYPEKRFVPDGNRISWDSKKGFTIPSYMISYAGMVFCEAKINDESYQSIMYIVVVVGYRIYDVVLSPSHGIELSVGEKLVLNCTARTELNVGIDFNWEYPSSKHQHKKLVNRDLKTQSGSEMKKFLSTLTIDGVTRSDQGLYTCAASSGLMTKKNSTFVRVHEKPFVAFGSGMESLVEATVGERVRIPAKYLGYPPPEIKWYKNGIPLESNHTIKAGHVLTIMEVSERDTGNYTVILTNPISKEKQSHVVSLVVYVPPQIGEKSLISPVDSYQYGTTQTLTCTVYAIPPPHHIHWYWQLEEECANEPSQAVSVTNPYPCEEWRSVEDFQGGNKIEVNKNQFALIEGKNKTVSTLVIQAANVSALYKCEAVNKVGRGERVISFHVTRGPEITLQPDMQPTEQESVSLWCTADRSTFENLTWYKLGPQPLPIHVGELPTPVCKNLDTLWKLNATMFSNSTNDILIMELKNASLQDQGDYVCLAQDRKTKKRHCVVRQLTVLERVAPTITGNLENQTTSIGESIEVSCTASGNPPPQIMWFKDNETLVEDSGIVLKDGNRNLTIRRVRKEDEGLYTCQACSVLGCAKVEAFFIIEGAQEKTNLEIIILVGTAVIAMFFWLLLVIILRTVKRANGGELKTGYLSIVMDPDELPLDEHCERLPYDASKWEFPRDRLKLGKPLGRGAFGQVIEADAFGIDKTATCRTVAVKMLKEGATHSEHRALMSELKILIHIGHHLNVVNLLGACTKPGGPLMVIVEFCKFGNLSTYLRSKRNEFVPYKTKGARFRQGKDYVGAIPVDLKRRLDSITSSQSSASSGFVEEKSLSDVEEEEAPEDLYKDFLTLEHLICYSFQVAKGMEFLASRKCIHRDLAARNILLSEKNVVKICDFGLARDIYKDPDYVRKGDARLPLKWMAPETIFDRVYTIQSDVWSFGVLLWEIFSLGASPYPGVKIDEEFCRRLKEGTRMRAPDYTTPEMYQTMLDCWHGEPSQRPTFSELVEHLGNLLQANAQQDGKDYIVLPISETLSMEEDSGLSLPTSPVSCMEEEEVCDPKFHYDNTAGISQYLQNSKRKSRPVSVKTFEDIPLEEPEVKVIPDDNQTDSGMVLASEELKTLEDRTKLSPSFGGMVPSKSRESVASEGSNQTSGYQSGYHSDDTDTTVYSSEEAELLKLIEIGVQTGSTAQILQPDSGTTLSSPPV
# Assay Method Text: VEGFR2/NFAT Reporter HEK293 luciferase assay of VEGF signaling
# Format: cell-based
# Details: VEGFR2-HEK cells, cold white LED light for the first 10 min of 1 h pre-incubation, 20 ng/ml VEGF165; read-out: IC50 Light
Some compounds, each annotated with its measured log10 IC50.
Result Type: log10 IC50 (log10 of the value in nM)

• CCN(CC)CCNC(=O)c1c(C)[nH]c(/C=C2\C(=O)Nc3ccc(N=[N+]=[N-])cc32)c1C = 1.57
• CCN(CC)CCNC(=O)c1c(C)[nH]c(/C=C2\C(=O)Nc3cc(Cl)c(N=[N+]=[N-])cc32)c1C = 0.35
• CCN(CC)CCNC(=O)c1c(C)[nH]c(/C=C2\C(=O)Nc3cc(N=[N+]=[N-])c(F)cc32)c1C = 1.07
• CCN(CC)CCNC(=O)c1c(C)[nH]c(/C=C2\C(=O)Nc3cc(N=[N+]=[N-])ccc32)c1C = 0.97
• Cc1[nH]c(/C=C2\C(=O)Nc3cc(Cl)c(N=[N+]=[N-])cc32)c(C)c1C(=O)N[C@H]1CCN(C(=O)N(C)C)C1 = -0.04
• CCN(CC)CCNC(=O)c1c(C)[nH]c(/C=C2\C(=O)Nc3cc(F)c(N=[N+]=[N-])cc32)c1C = 0.95
• CCN(CC)CCNC(=O)c1c(C)[nH]c(/C=C2\C(=O)Nc3cc(Br)c(N=[N+]=[N-])cc32)c1C = 0.54
• Cc1[nH]c(/C=C2\C(=O)Nc3cc(N=[N+]=[N-])ccc32)c(C)c1C(=O)N[C@H]1CCN(C(=O)N(C)C)C1 = 1.00
